Documented Tmax across a set of molecules
experiment: Tmax in mouse at 5 mg/kg, po; assay type: ADME, organism-based; parameters: dose 5 mg/kg, route oral; details: in vivo
Please don't drop the unit; write it after the number.

Use these answered entries as a reference point.
1) CC(C)(C)OC(=O)N1CCN(CCCOc2cccc(NC(=O)NC34CC5CC(CC(C5)C3)C4)c2)CC1 ... 30 min
2) CS(=O)(=O)N1CCN(CCCCOc2cccc(NC(=O)NC34CC5CC(CC(C5)C3)C4)c2)CC1 ... 30 min
3) CC(C)(C)OC(=O)N1CCN(CCCCOc2cccc(NC(=O)NC34CC5CC(CC(C5)C3)C4)c2)CC1 ... 540 min

Incoming: Assign Tmax to the following record: "CC(=O)N1CCN(CCCCOc2ccc(NC(=O)NC34CC5CC(CC(C5)C3)C4)cc2)CC1"
Outgoing: 30 min

Incoming: Given the molecule "CC(=O)N1CCN(CCCOc2ccc(NC(=O)NC34CC5CC(CC(C5)C3)C4)cc2)CC1" , write its reported Tmax.
Outgoing: 30 min

Incoming: Please indicate Tmax recorded for "CC(=O)N1CCN(CCCOc2cccc(NC(=O)NC34CC5CC(CC(C5)C3)C4)c2)CC1"
Outgoing: 30 min

* * *

assay: AUC in mouse at 5 mg/kg, po; assay type: ADME, organism-based; parameters: dose 5 mg/kg, route oral; details: plasma
# note: exactly 0.1 µM·h is not below, so it is N; use Y for AUC strictly under it

1) O=C(O)CCCCCCCCCCCNC(=O)NC12CC3CC(CC(C3)C1)C2 ... Y
2) CC(C)(C)OC(=O)N1CCN(CCCCOc2cccc(NC(=O)NC34CC5CC(CC(C5)C3)C4)c2)CC1 ... Y
3) CC(=O)N1CCN(CCCOc2ccc(NC(=O)NC34CC5CC(CC(C5)C3)C4)cc2)CC1 ... N

Incoming: Is it true that AUC reported for "CC(=O)N1CCN(CCCCOc2ccc(NC(=O)NC34CC5CC(CC(C5)C3)C4)cc2)CC1" is less than 0.1 µM·h?
Outgoing: N

Incoming: Record "CS(=O)(=O)N1CCN(CCCCOc2cccc(NC(=O)NC34CC5CC(CC(C5)C3)C4)c2)CC1" : is its AUC strictly below 0.1 µM·h?
Outgoing: N

Incoming: Criterion: AUC strictly below 0.1 µM·h. Is it met by "CC(=O)N1CCN(CCCOc2cccc(NC(=O)NC34CC5CC(CC(C5)C3)C4)c2)CC1" ?
Outgoing: N

* * *

assay: Half life in mouse at 5 mg/kg, po; type: ADME, organism-based; set-up: dose 5 mg/kg, route oral; settings: in vivo
RESULT_TYPE: half-life (h)
Unit h implied. Number only.

1. CC(=O)N1CCN(CCCOc2ccc(NC(=O)NC34CC5CC(CC(C5)C3)C4)cc2)CC1 ... 6
2. CC(C)(C)OC(=O)N1CCN(CCCCOc2cccc(NC(=O)NC34CC5CC(CC(C5)C3)C4)c2)CC1 ... 59
3. CC(C)(C)OC(=O)N1CCN(CCCOc2cccc(NC(=O)NC34CC5CC(CC(C5)C3)C4)c2)CC1 ... 23
4. CS(=O)(=O)N1CCN(CCCCOc2cccc(NC(=O)NC34CC5CC(CC(C5)C3)C4)c2)CC1 ... 3.5
5. CC(=O)N1CCN(CCCCOc2ccc(NC(=O)NC34CC5CC(CC(C5)C3)C4)cc2)CC1 ... 14

Incoming: Consider the molecule "CC(=O)N1CCN(CCCOc2cccc(NC(=O)NC34CC5CC(CC(C5)C3)C4)c2)CC1" . State its measured half-life.
Outgoing: 8
